subject.of.test: T1, mouse ACVR2A (mouse, UniProt P27038 20-135, limits assumed)
T1 construct: coated antigen of the initial ELISA
procedure.text: ELISA; further: test concentration or dose not given here
Would you mind telling me the reported optical density of each entry?
Could you give me the number in OD? Just the number is fine.

The binder listed as 369_D07 (antibody, V domains shown, Group III) VH: EVQLLESGGGLVQPGGSLRLSCAASGFTFSSYGMNWVRQAPGKGLEWVSGINYNGGYKSYADSVKGRFTISRDNSKNTLYLQMNSLRAEDTAVYYCARGANWHDTHLDYWGQGTLVTVSS VL: DIQMTQSPSSLSASVGDRVTITCRASQSIVSYLNWYQQKPGKAPKLVIYAATSRASGVPSRFSGSGSGTDFTLTISSLQPEDFATYYCQQSYDLPLTFGGGTKVEIK has a reported optical density of 2.91

Input 367_D06 (antibody, V domains shown, Group III) VH: EVQLLESGGGLVQPGGSLRLSCAASGFTFDSYSMNWVRQAPGKGLEWVAGINYNGGYTSYADSVKGRFTISRDNSKNTLYLQMNSLRAEDTAVYYCARGANWHDTHLDYWGQGTLVTVSS VL: DIQMTQSPSSLSASVGDRVTITCRASQSISTYLNWYQQKPGKAPKLVIYAATSLASGVPSRFSGSGSGTDFTLTISSLQPEDFATYYCQQSYNSPLTFGGGTKVEIK . Output optical density: 2.35

Measured optical density, 368_H05 (antibody, V domains shown, Group III) VH: EVQLLESGGGLVQPGGSLRLSCAASGFTFSSYSMNWVRQAPGKGLEWVANINYNGGYKSYADSVKGRFTISRDNSKNTLYLQMNSLRAEDTAVYYCARGANWHDTHLDYWGQGTLVTVSS VL: DIQMTQSPSSLSASVGDRVTITCRASQSIVSYVNWYQQKPGKAPKLVIYATTSRASGVPSRFSGSGSGTDFTLTISSLQPEDFATYYCQQSYESPLTFGGGTKVEIK : 2.2
